testTarget: Adenosine receptor A2b (Homo sapiens) (UniProt P29275)
Sequence (whole entry): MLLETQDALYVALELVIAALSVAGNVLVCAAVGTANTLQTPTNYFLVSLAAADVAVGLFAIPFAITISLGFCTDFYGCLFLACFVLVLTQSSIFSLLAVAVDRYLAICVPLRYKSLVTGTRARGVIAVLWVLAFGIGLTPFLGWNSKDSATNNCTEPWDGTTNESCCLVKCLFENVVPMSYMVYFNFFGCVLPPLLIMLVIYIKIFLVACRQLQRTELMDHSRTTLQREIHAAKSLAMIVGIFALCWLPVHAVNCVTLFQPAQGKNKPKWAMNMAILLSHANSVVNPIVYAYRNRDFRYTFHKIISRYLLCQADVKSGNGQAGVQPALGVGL
testName: Displacement of [3H]DPCPX from human A2B receptor expressed in HEK-293-A2B cells at 10 uM incubated for 30 mins by scintillation counting method based radioligand competitive binding assay
Format: cell-based
measuredQuantity: inhibition (%)

Here is how some compounds turned out for inhibition.
smilesRecord	inhibition / %
CN1CCN(c2nc(-c3cccc(Cl)c3)nc3c2ncn3C)CC1	19.2
Cn1cnc2c(N3CCCCC3)nc(-c3cccc(O)c3)nc21	29.3
CN1CCN(c2nc(-c3ccc(Cl)c(Cl)c3)nc3[nH]cnc23)CC1	24.1
CN1CCN(c2nc(-c3ccc(Cl)c(Cl)c3)nc3c2ncn3C)CC1	28.3

[a] CN1CCN(c2nc(-c3ccc(Cl)c(C(F)(F)F)c3)nc3[nH]cnc23)CC1
[b] CN1CCN(c2nc(-c3ccccc3O)nc3c2ncn3C)CC1
Higher inhibition: a or b ? Pick one and reply with its label.
b
(b: 36%, a: 25.1%)
